Origin of measurements: PubChem BioAssay AID434989

Form field: inhibition (one value per entry).
# tested-on: Orexin/Hypocretin receptor type 1 (Homo sapiens)
# test-details: blockers of orexin-A calcium signaling via HCRTR1 – fluorescence, CHO/OX1R cells, Fluo-8 calcium, primary screen (AID 434989);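 also: 0% = orexin A challenge wells and 100% = SB-334867-A antagonist wells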
# experimental-context: Fluo-8 calcium fluorescence, at 5 µM, active compounds read high
Among all 330,000 compounds or so, about 1,400 (0.42%) were called active. The sample holds actives, similar compounds and a random draw of the others, so the mix is not that of the screen.
Response body: numeric value in %, unit text excluded.

Completed entries (count: 3):
>>> readout_value("CC(C)N(C(=O)[C@H]1C[C@H](CC(=O)NCCC2=CCCCC2)C(=O)N2CCc3c([nH]c4cc(CCC(=O)N(C)C)ccc34)[C@]12C)C(C)C")
-35.9
>>> readout_value("CCNC(=S)N1CCN(S(=O)(=O)c2ccc(Cl)s2)CC1")
-8.33
>>> readout_value("C=CC[C@@H](Cc1ccc(F)cc1)C(=O)OC[C@H]1CCCN1C(=O)[C@H](CC=C)CC(=O)N(CCO)Cc1ccccc1")
24.4

Q) # query: inhibition of entry CC(NC(=O)COC(=O)Cn1cc(C(F)(F)F)ccc1=O)c1ccccc1 (centres undefined)
A) -5.69

Q) And for CCOC(=O)C1CCCN(C(=O)CSc2nnc3nc(C)cc(C)n23)C1 (centres undefined) ?
A) -14.2

Q) And for COc1ccc(NC(=O)Nc2ccc3c(c2)C(=O)N([C@H](C)CO)C[C@H](C)[C@@H](CN(C)C(=O)Nc2ccc4c(c2)OCO4)O3)cc1 ?
A) 1.29

Q) And for CC(C)(C)OC(=O)C1=C(CO)CS[C@@H]2[C@H](NC(=O)Cc3ccccc3)C(=O)N12 ?
A) 1.11

Q) And for CCn1c(=S)[nH]c2cc(S(=O)(=O)N3CCOCC3)ccc21 ?
A) -24.1

Q) And for Cc1ccc(S(=O)(=O)N2[C@@H](c3cccc4ccccc34)C(C(=O)O)=C[C@H]2C(C)(C)C)cc1 ?
A) -3.21

Q) And for O=C(/C=C/c1ccc(Cl)c([N+](=O)[O-])c1)c1ccc(O)cc1 ?
A) -19.1

Q) And for O=C(/C=C/c1ccc2c(c1)OCCO2)c1ccc(O)cc1 ?
A) -5.09

Q) And for CN1C(=O)c2cccc3c(N)ccc(c23)C1=O ?
A) 41.1

Q) And for O=C(/C=C(O)/C=C/c1ccc(O)cc1)/C=C/c1ccc(O)cc1 ?
A) 88

Q) And for CCC(C(=O)Nc1ccc2c(c1)OCCO2)c1ccccc1 (centres undefined) ?
A) 3.71

Q) And for Fc1ccccc1-c1cc2cc3c(cc2cn1)OCO3 ?
A) 38.1

Q) And for CC[C@]12c3[nH]c4ccc(OC)cc4c3CCN1C(=O)C(CC(=O)NCCN1CCOCC1)C[C@@H]2C(=O)N1CCN(C(=O)C2CC2)CC1 (some centres undefined) ?
A) -6.98

Q) And for CCC(C(=O)Nc1ccc(C(C)C)cc1)c1ccccc1 (centres undefined) ?
A) 62.9

Q) And for CCC(C(=O)OCC(=O)Nc1ccc(C(=O)Nc2ccc(OC)cc2)cc1)c1ccccc1 (centres undefined) ?
A) -0.08

Q) And for COc1ccc(CN2C(CC(=O)Nc3cccnc3)c3ccc(C(F)(F)F)cc3S2(=O)=O)cc1 (centres undefined) ?
A) -16.2
